- ASSAY_SYSTEM: UniProtKB O60674
- APPLIED_CONDITIONS: read-out: JAK2 IC50
pIC50: −log10 of the molar value.
Each record here notes measured pIC50.
READOUT_NAME: pIC50

molecule="COc1ccccc1CNc1nc(Nc2cnn(C)c2)ncc1C(N)=O [Example 2]" measured_result=8.66
molecule="COc1cccc(F)c1CNc1nc(Nc2cnn(C)c2)ncc1C(N)=O [Example 3]" measured_result=9.24
molecule="CC(C)(C)n1cc(Nc2ncc(C(N)=O)c(NCC3CC=CC3)n2)cn1 [Example 236]" measured_result=8.59
molecule="C=CCCNc1nc(Nc2cnn(C(C)(C)C)c2)ncc1C(N)=O [Example 228]" measured_result=7.86
molecule="Cc1cccc(C)c1CNc1nc(Nc2cnn(CCO)c2)ncc1C(N)=O [Example 174]" measured_result=8.51

----------
- ASSAY_SYSTEM: JAK2 kinase (Homo sapiens (Human), UniProt O60674)
- Sequence (O60674 826-1132): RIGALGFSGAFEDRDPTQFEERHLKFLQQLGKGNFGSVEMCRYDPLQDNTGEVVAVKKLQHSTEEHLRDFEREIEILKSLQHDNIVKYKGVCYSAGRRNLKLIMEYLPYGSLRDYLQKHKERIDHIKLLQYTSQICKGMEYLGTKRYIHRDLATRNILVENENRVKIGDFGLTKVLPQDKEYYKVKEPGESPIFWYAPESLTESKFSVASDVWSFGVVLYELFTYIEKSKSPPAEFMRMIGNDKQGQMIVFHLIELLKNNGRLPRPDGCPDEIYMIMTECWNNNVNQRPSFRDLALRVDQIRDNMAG
pIC50: −log10 of the molar value.
Please mark fulfilled if the recorded pIC50 is equal to or greater than 9, and not fulfilled if it falls below.

compound="NC(=O)c1cnc(Nc2cnn(C3CCOCC3)c2)nc1NCc1c(F)cccc1F [Example 137]" assay_system="JAK2 kinase (Homo sapiens (Human), UniProt O60674)" cat=fulfilled
compound="CC(C)(O)Cn1cc(Nc2ncc(C(N)=O)c(NCc3c(F)cccc3F)n2)cn1 [Example 145]" assay_system="JAK2 kinase (Homo sapiens (Human), UniProt O60674)" cat="not fulfilled"
compound="C=CCNc1nc(Nc2cnn(C(C)(C)C)c2)ncc1C(N)=O [Example 238]" assay_system="JAK2 kinase (Homo sapiens (Human), UniProt O60674)" cat="not fulfilled"
compound="C=C(C)CNc1nc(Nc2cnn(C3CCOCC3)c2)ncc1C(N)=O [Example 232]" assay_system="JAK2 kinase (Homo sapiens (Human), UniProt O60674)" cat="not fulfilled"
compound="C=C(C)CCCNc1nc(Nc2cnn(C(C)(C)C)c2)ncc1C(N)=O [Example 244]" assay_system="JAK2 kinase (Homo sapiens (Human), UniProt O60674)" cat="not fulfilled"
compound="CC(C)n1cc(Nc2ncc(C(N)=O)c(NCc3c(F)cccc3F)n2)cn1 [Example 133]" assay_system="JAK2 kinase (Homo sapiens (Human), UniProt O60674)" cat=fulfilled

----------
Each record here notes measured log10(IC50).
- ASSAY_SYSTEM: JAK2 kinase (Homo sapiens (Human), UniProt O60674)
READOUT_NAME: log10(IC50) (log10 of the value in nM)

compound="NC(=O)c1cnc(Nc2cnn(CC3CCCO3)c2)nc1NCc1c(F)cccc1F (centres unmarked)" assay_system="JAK2 kinase (Homo sapiens (Human), UniProt O60674)" measured_result=0.09
compound=C=CCCNc1nc(Nc2cnn(C3CCOCC3)c2)ncc1C(N)=O assay_system="JAK2 kinase (Homo sapiens (Human), UniProt O60674)" measured_result=0.08
compound=CC(C)=CCCCNc1nc(Nc2cnn(C(C)(C)C)c2)ncc1C(N)=O assay_system="JAK2 kinase (Homo sapiens (Human), UniProt O60674)" measured_result=1.23
compound=CCn1cc(Nc2ncc(C(N)=O)c(NCc3c(F)cccc3F)n2)cn1 assay_system="JAK2 kinase (Homo sapiens (Human), UniProt O60674)" measured_result=-0.29
compound=NC(=O)c1cnc(Nc2cnn(C3CC3)c2)nc1NCc1c(F)cccc1F assay_system="JAK2 kinase (Homo sapiens (Human), UniProt O60674)" measured_result=0.08
compound=C=C(C)CCNc1nc(Nc2cnn(C(C)(C)C)c2)ncc1C(N)=O assay_system="JAK2 kinase (Homo sapiens (Human), UniProt O60674)" measured_result=0.18
compound=Cn1cc(Nc2ncc(C(N)=O)c(NCc3ccccc3)n2)cn1 assay_system="JAK2 kinase (Homo sapiens (Human), UniProt O60674)" measured_result=0.98
compound=COCCn1cc(Nc2ncc(C(N)=O)c(NCc3c(F)cccc3OC)n2)cn1 assay_system="JAK2 kinase (Homo sapiens (Human), UniProt O60674)" measured_result=0.00
compound=CC(C)C/C=C/CNc1nc(Nc2cnn(C(C)(C)C)c2)ncc1C(N)=O assay_system="JAK2 kinase (Homo sapiens (Human), UniProt O60674)" measured_result=1.63
compound=CC(C)=CCNc1nc(Nc2cnn(C(C)(C)C)c2)ncc1C(N)=O assay_system="JAK2 kinase (Homo sapiens (Human), UniProt O60674)" measured_result=0.23
compound=C=C(C)CNc1nc(Nc2cnn(C(C)(C)C)c2)ncc1C(N)=O assay_system="JAK2 kinase (Homo sapiens (Human), UniProt O60674)" measured_result=0.45
compound=COCCn1cc(Nc2ncc(C(N)=O)c(NCc3c(F)cccc3F)n2)cn1 assay_system="JAK2 kinase (Homo sapiens (Human), UniProt O60674)" measured_result=0.10
compound=COc1ccccc1CNc1nc(Nc2cnn(CCO)c2)ncc1C(N)=O assay_system="JAK2 kinase (Homo sapiens (Human), UniProt O60674)" measured_result=-0.02
compound=CC(=O)N1CCC(CNc2nc(Nc3cnn(C)c3)ncc2C(N)=O)CC1 assay_system="JAK2 kinase (Homo sapiens (Human), UniProt O60674)" measured_result=1.52
